Please provide measured pEC50 for the entries that follow.
Target: STING (Stimulator of Interferon Genes) (Homo sapiens, UniProt Q86WV6, G230A/H232R/R293Q/R71H)
Construct: host or cells: THP-1-Lucia ISG cells (human monocytic line)
Sequence (Q86WV6 whole entry R71H/G230A/H232R/R293Q): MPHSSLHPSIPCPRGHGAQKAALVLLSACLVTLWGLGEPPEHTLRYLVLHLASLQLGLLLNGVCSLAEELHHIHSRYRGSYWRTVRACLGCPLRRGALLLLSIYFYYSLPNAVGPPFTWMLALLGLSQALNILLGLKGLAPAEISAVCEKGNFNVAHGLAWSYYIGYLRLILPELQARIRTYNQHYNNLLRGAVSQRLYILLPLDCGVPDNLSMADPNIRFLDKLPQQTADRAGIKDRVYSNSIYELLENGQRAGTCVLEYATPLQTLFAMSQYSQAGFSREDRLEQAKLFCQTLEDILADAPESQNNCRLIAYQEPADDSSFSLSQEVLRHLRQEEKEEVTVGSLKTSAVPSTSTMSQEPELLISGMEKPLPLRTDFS
Test: ISG-LUC activation assay (ISRE-Luciferase assay in THP-1 Lucia ISG reporter cells)
Assay type: cell-based
Settings: THP-1 Lucia ISG cells, 24 hours, luciferase reporter; read-out: ISG-LUC activation assay (EC50)
A value of pEC50 is the negative decimal logarithm of a concentration given in moles per litre.

Give a short answer stating reported pEC50 for N=C(N)NCCC[C@H](NC(=O)c1cc(F)c(F)cc1NC(=O)c1ccc(-n2ccnc2)nn1)C(N)=O [Compound 124] .
5.09

Give a short answer stating reported pEC50 for COC(=O)c1cc(Cl)ccc1NC(=O)c1ccc(-n2ccnc2)nn1 [Compound 106] .
6.46

Give a short answer stating reported pEC50 for Cc1cc(C(=O)O)c(NC(=O)c2ccc(-n3ccnc3)nn2)cc1F [Compound 172] .
6.00

Give a short answer stating reported pEC50 for O=C(Nc1cc(Cl)c(Cl)cc1C(=O)O)c1ccc(-n2ccnc2)nn1 [Compound 103] .
6.35

Give a short answer stating reported pEC50 for COC(=O)c1cc(C(F)(F)F)c(F)cc1NC(=O)c1ccc(-n2ccnc2)nn1 [Compound 70] .
5.76

Give a short answer stating reported pEC50 for COC(=O)c1nc(Br)c(F)cc1NC(=O)c1ccc(-n2ccnc2)nn1 [Compound 43] .
6.85

Give a short answer stating reported pEC50 for COC(=O)c1ncc(F)cc1NC(=O)c1ccc(-n2ccnc2)nn1 [Compound 69] .
5.56

Give a short answer stating reported pEC50 for CCOC(=O)c1nc2ccccc2cc1NC(=O)c1ccc(-n2ccnc2)nn1 [Compound 153] .
7.37

Give a short answer stating reported pEC50 for Cc1cc(NC(=O)c2ccc(-n3ccnc3)nn2)c(C(N)=O)cc1C [Compound 125] .
5.02

Give a short answer stating reported pEC50 for O=c1oc(-c2ccc(-n3ccnc3)nn2)nc2cc(F)c(OC(F)(F)F)cc12 [Compound 42] .
6.43

Give a short answer stating reported pEC50 for O=C(Nc1cc2ccccc2cc1C(=O)O)c1ccc(-n2ccnc2)nn1 [Compound 78] .
5.35

Give a short answer stating reported pEC50 for O=C(Nc1cc(F)ccc1C(=O)O)c1ccc(-n2ccnc2)nn1 [Compound 169] .
4.90

Give a short answer stating reported pEC50 for COC(=O)c1cc(C(C)C)ccc1NC(=O)c1ccc(-n2ccnc2)nn1 [Compound 160] .
5.42

Give a short answer stating reported pEC50 for CCOC(=O)c1ccccc1NC(=O)c1ccc(-n2ccnc2)nn1 [Compound 64] .
6.03

Give a short answer stating reported pEC50 for CCN(CC)CCOC(=O)c1cc(F)c(F)cc1NC(=O)c1ccc(-n2ccnc2)nn1 [Compound 68] .
5.74

Give a short answer stating reported pEC50 for COC(=O)c1n[nH]cc1NC(=O)c1ccc(-n2ccnc2)nn1 [Compound 123] .
5.52

Give a short answer stating reported pEC50 for CC(C)OC(=O)c1cc(F)ccc1NC(=O)c1ccc(-n2ccnc2)nn1 [Compound 25] .
6.09

Give a short answer stating reported pEC50 for CC(C)OC(=O)c1cc(F)c(F)cc1NC(=O)c1ccc(-n2ccnc2)nn1 [Compound 24] .
6.13

Give a short answer stating reported pEC50 for O=C(Nc1cc(C2CC2)c(F)cc1C(=O)O)c1ccc(-n2ccnc2)nn1 [Compound 174] .
5.00

Give a short answer stating reported pEC50 for Cc1cc2nc(-c3ccc(-n4ccnc4)nn3)oc(=O)c2cc1F [Compound 39] .
7.51

Give a short answer stating reported pEC50 for COC(=O)c1cc(C#N)cc(F)c1NC(=O)c1ccc(-n2ccnc2)nn1 [Compound 73] .
5.63

Give a short answer stating reported pEC50 for CCOC(=O)c1cc[nH]c1NC(=O)c1ccc(-n2ccnc2)nn1 [Compound 110] .
4.77

Give a short answer stating reported pEC50 for O=C(Nc1cc(F)c(F)cc1C(=O)NC1CCC(O)(C(F)(F)F)CC1)c1ccc(-n2ccnc2)nn1 (centres unmarked) [Compound 88] .
5.28

Give a short answer stating reported pEC50 for COC(=O)c1nn(C)cc1NC(=O)c1ccc(-n2ccnc2)nn1 [Compound 119] .
5.23

Give a short answer stating reported pEC50 for Cc1cc(NC(=O)c2ccc(-n3ccnc3)nn2)c(C(=O)OCCCCO)cc1C [Compound 46] .
6.38
